Numbers sourced from patent US20230398130A1.

# Test system: ISC-enriched organoids
# assay_comment: Primary screen, 384-well 2.5-D organoid differentiation (ENR+CD, 6 days): basal lysozyme secretion (LYZ.NS)
# Assay type: cell-based, murine
# recorded_conditions: Dose 0.40 uM; standard z score of FC
# Description: High-throughput screening.
quantity_name: Z.LYZ.NS
Numbers only.

molecule: C=CC(=O)Nc1cccc(Nc2nc(Nc3ccc(Oc4ccnc(C(=O)NC)c4)cc3)ncc2F)c1
study_target: ISC-enriched organoids
Z.LYZ.NS: −0.067
--
molecule: CCCCCCCCCCCCCCCCn1cc[n+](Cc2ccccc2)c1C.[I-]
study_target: ISC-enriched organoids
Z.LYZ.NS: −1.634
--
molecule: CN1C(=O)C(Cc2c[nH]c3ccccc23)NC1=S (stereo not shown)
study_target: ISC-enriched organoids
Z.LYZ.NS: 0.174
--
molecule: CC(=O)c1c(C)c2cnc(Nc3ccc(N4CCNCC4)cn3)nc2n(C2CCCC2)c1=O.Cl [Palbociclib (PD-0332991) HCl]
study_target: ISC-enriched organoids
Z.LYZ.NS: −0.248
--
molecule: CCC(CC)(NC(=O)C(C)C)C(=O)N[C@@H](CCCN=C(N)N)C(=O)NC1(C(=O)NC(c2ccc(F)cc2)c2ccc(F)cc2)CCCC1
study_target: ISC-enriched organoids
Z.LYZ.NS: −0.090

Quick one: give me Z.LYZ.NS for each item below, same order please.
1. CCc1c(C(=O)NCCc2ccc(N3CCCCC3)cc2)[nH]c2ccc(Cl)cc12
2. C[C@](O)(COc1ccc(C#N)cc1)C(=O)Nc1ccc(C#N)c(C(F)(F)F)c1

1. 0.445
2. 0.241

----------
# Test system: ISC-enriched organoids
# assay_comment: Primary screen, 384-well 2.5-D organoid differentiation (ENR+CD, 6 days): carbachol-induced lysozyme secretion (LYZ.S)
# Format: cell-based, murine
# recorded_conditions: Dose 0.08 uM; primary screen, FC vs plate median
Please respond with 1 when measured Dose.FC.LYZ.S is strictly beneath 0.02 log 2 fold change, and with -1 in all other cases.

Some solved cases for reference:
compound: CCn1c(-c2nonc2N)nc2c(C#CC(C)(C)O)ncc(OC[C@H]3CCCNC3)c21
class_assignment: 1
//
compound: CC(=O)O[C@H]1C[C@@H]2CC[C@@H]3[C@H](CC[C@@]4(C)[C@H]3C[C@H]([N+]3(C)CCCCC3)[C@@H]4OC(C)=O)[C@@]2(C)C[C@@H]1[N+]1(C)CCCCC1.[Br-].[Br-] [Pancuronium dibromide]
class_assignment: -1
//
compound: O=C(NNc1ccccc1)c1ccncc1
class_assignment: -1
//
compound: FC(F)(F)c1ccc(/C=C/c2nc(COc3ccc(CCCCn4ccnn4)cc3)co2)cc1
class_assignment: 1
//
compound: CN(c1ncccc1CNc1nc(Nc2ccc3c(c2)CC(=O)N3)ncc1C(F)(F)F)S(C)(=O)=O
class_assignment: 1
//
compound: NCC(=O)Nc1ccc(-n2nc(C(F)(F)F)cc2-c2ccc3c(ccc4ccccc43)c2)cc1
class_assignment: -1

Moving on to the next compound.
Strictly below 0.02 log 2 fold change in Dose.FC.LYZ.S? CCc1cncnc1N1CCN(Cc2nc3ccc(C(F)(F)F)cc3[nH]2)CC1
-1

----------
# System: ISC-enriched organoids
# assay_comment: Primary screen, 384-well 2.5-D organoid differentiation (ENR+CD, 6 days, Target Selective Inhibitor Library, vs whole-plate median): ATP (CellTiter-Glo 3D, CTG)
# recorded_conditions: primary screen, dose 10.00 uM, ENR+CD 6 days, FC vs plate median
Label scheme for Dose.FC.CTG: lower than -0.2 log 2 fold change is Not fulfilled, -0.2 log 2 fold change and above is Fulfilled.

Some solved cases for reference:
molecule: Cc1cc2c(C(C)C)c(O)c(O)c(C=O)c2c(O)c1-c1c(C)cc2c(C(C)C)c(O)c(O)c(C=O)c2c1O [AT101]
class_assignment: Fulfilled
//
molecule: CN1CCc2cc3c(cc2[C@H]1[C@@H]1OC(=O)c2c1ccc1c2OCO1)OCO3 [(+)-Bicuculline]
class_assignment: Fulfilled
//
molecule: COc1ccnc2[nH]cc(C(=O)C(=O)N3CCN(C(=O)c4ccccc4)C[C@H]3C)c12 [BMS-378806]
class_assignment: Not fulfilled
//
molecule: CC(C)N(CC[C@H](c1ccccc1)c1cc(CO)ccc1O)C(C)C [4CE°8C]
class_assignment: Fulfilled
//
molecule: O=C(Oc1cc(S(=O)(=O)c2ccccc2)ccc1[N+](=O)[O-])c1ccc(Cl)cc1 [BTB06584]
class_assignment: Fulfilled

Has C=C1C(=O)O[C@H]2[C@H]1CC/C(C)=C/CC[C@@]1(C)O[C@@H]21 [(−)-Parthenolide] a recorded Dose.FC.CTG greater than or equal to -0.2 log 2 fold change?
Fulfilled

Has CCNC(=O)c1noc(-c2cc(C(C)C)c(O)cc2O)c1-c1ccc(CN2CCOCC2)cc1 [AUY922 (NVP-AUY922)] a recorded Dose.FC.CTG greater than or equal to -0.2 log 2 fold change?
Not fulfilled

Has COc1ccc2c(c1)c(CC(=O)N1CCOCC1)c(C)n2C(=O)c1ccc(Cl)cc1 [BML-190] a recorded Dose.FC.CTG greater than or equal to -0.2 log 2 fold change?
Fulfilled

Has CN(C)C(=O)c1ccc(S(=O)(=O)c2ccc(NC(=O)[C@@](C)(O)C(F)(F)F)c(Cl)c2)cc1 [AZD7545] a recorded Dose.FC.CTG greater than or equal to -0.2 log 2 fold change?
Not fulfilled

Has C[C@H]1COC2(CCN(c3nc(=O)c4cc(C(F)(F)F)cc([N+](=O)[O-])c4s3)CC2)O1 (racemic) [BTZ043 Racemate] a recorded Dose.FC.CTG greater than or equal to -0.2 log 2 fold change?
Fulfilled

Has CC1(C)CCC(CN2CCN(c3ccc(C(=O)NS(=O)(=O)c4ccc(NCC5CCOCC5)c([N+](=O)[O-])c4)c(Oc4cnc5[nH]ccc5c4)c3)CC2)=C(c2ccc(Cl)cc2)C1 [ABT-199 (GDC-0199)] a recorded Dose.FC.CTG greater than or equal to -0.2 log 2 fold change?
Not fulfilled

Has O=C(/C=C/c1cccc(S(=O)(=O)Nc2ccccc2)c1)NO [Belinostat (PXD101)] a recorded Dose.FC.CTG greater than or equal to -0.2 log 2 fold change?
Not fulfilled

Has COc1cc(N2CCN(C)CC2)ccc1Nc1nccc(-c2cn(C)c3cnccc23)n1 [AZ191] a recorded Dose.FC.CTG greater than or equal to -0.2 log 2 fold change?
Not fulfilled

Has COc1cc2c(cc1O)CC[C@@H]1[C@@H]2CC[C@]2(C)[C@@H](O)CC[C@@H]12 [2-Methoxyestradiol (2-MeOE2)] a recorded Dose.FC.CTG greater than or equal to -0.2 log 2 fold change?
Not fulfilled

----------
# Test system: ISC-enriched organoids
# assay_comment: Primary screen, 384-well 2.5-D organoid differentiation (ENR+CD, 6 days): carbachol-induced lysozyme secretion (LYZ.S)
# Format: cell-based, murine
# recorded_conditions: Dose 10.00 uM; primary screen, FC vs plate median
quantity_name: Dose.FC.LYZ.S (log 2 fold change)
Numbers only, in log 2 fold change.

Consider the worked cases shown below.
compound: CCCC(C)NC(=O)c1ccc(Cl)c(Cl)c1 (stereo not shown)
value_unit: log 2 fold change
Dose.FC.LYZ.S: −0.061

compound: CNC(=O)[C@H](Cc1c[nH]c2ccccc12)NC(=O)[C@@H](CC(=O)NO)CC(C)C
value_unit: log 2 fold change
Dose.FC.LYZ.S: −0.078

compound: COc1ccc(COc2ccc(Cc3cnc(N)nc3N)cc2OC)cc1
value_unit: log 2 fold change
Dose.FC.LYZ.S: −0.026

Reported Dose.FC.LYZ.S ( Cc1cnc(NC(=O)Nc2cc(Br)c(C)cc2OC[C@@H]2CNCCO2)cn1 ) = −0.356

----------
# System: ISC-enriched organoids
# assay_comment: Primary screen, 384-well 2.5-D organoid differentiation (ENR+CD, 6 days): carbachol-induced lysozyme secretion (LYZ.S)
# Type: cell-based, murine
# recorded_conditions: Dose 0.08 uM; primary screen, vs plate median
Task for the reader: assign each of the following molecules its reported Dose.FC.LYZ.S (log 2 fold change).
Give bare numbers.

Consider the worked cases shown below.
molecule: O=C(Nc1ccccc1-c1cn2c(CN3CCNCC3)csc2n1)c1cnc2ccccc2n1 [SRT1720]
Dose.FC.LYZ.S (log 2 fold change): 0.190

molecule: O=C(Nc1cc(C(F)(F)F)ccc1N1CCCCC1)c1ccncc1 [SRPIN340]
Dose.FC.LYZ.S (log 2 fold change): 0.112

molecule: CNC(=O)c1ccccc1Nc1nc(Nc2ccc(N3CCOCC3)cc2OC)ncc1Cl [TAE226 (NVP-TAE226)]
Dose.FC.LYZ.S (log 2 fold change): −0.333

molecule: C[S+]([O-])c1ccc(-c2nc(-c3ccc(F)cc3)c(-c3ccncc3)[nH]2)cc1 (centres unmarked) [SB203580]
Dose.FC.LYZ.S (log 2 fold change): 0.148

molecule: COc1cc(OC)c(/C=C/S(=O)(=O)Cc2ccc(OC)c(NCC(=O)O)c2)c(OC)c1 [Rigosertib (ON-01910)]
Dose.FC.LYZ.S (log 2 fold change): −0.309

molecule: O=S(=O)(c1ccccc1)c1cnc2c(N3CCNCC3)cccc2c1 [SB742457]
Dose.FC.LYZ.S (log 2 fold change): −0.055

molecule: O=C1NC(=O)/C(=C/c2cccc(C(F)(F)F)c2)S1 [SMI-4a]
Dose.FC.LYZ.S (log 2 fold change): 0.036

molecule: CNC(=O)c1ccc2cc([C@@]3(O)CCn4cncc43)ccc2c1 [TAK-700 (Orteronel)]
Dose.FC.LYZ.S (log 2 fold change): 0.113

molecule: O=C1CC(=O)c2c(Cl)c(Cl)c(Cl)c(Cl)c21 [TCID]
Dose.FC.LYZ.S (log 2 fold change): 0.062

molecule: Cc1nn(-c2ccccc2)c(C)c1/C=N/N1CCN(Cc2ccccc2)CC1 [SANT-1]
Dose.FC.LYZ.S (log 2 fold change): 0.112

Quick one: give me Dose.FC.LYZ.S (log 2 fold change) for each item below, same order please.
1. O=C(Nc1ccccc1Br)N[C@@H]1CCN(c2ccc(C(F)(F)F)cn2)C1 [SB705498]
2. Cc1ccc(C(=O)N(CCCN)[C@@H](c2oc3cc(Cl)ccc3c(=O)c2Cc2ccccc2)C(C)C)cc1 [SB743921]
3. Cc1nnc(C(=O)NC(C)(C)c2nc(C(=O)NCc3ccc(F)cc3)c(O)c(=O)n2C)o1 [Raltegravir (MK-0518)]
4. O=C(NNc1nc2cc(F)ccc2n2cccc12)c1cnccn1 [SC144]

0.094
−0.321
0.137
0.098
